# TARGET_OF_ASSAY: the molecule itself
# ASSAY_METHOD_TEXT: cryo-EM structure; purified phage Mu virions in the extended state (native phage) in phage buffer (10 mM MgCl2, 5 mM NaCl, 10 mM Tris-HCl, pH 7.4); icosahedral, symmetry-mismatch and local reconstruction; 3.2 Å (3-fold capsid), 3.4 Å (portal-adaptor), 3.5 Å (terminator-tail), 3.3 Å (baseplate)
READOUT_NAME: stoichiometry N
Format: numeric value only, no unit, no commentary.

Sample hub protein gp44 (natural protein, phage Mu, UniProt P08558 1-379, looked up, baseplate hub protein gp44 of myophage Mu, as it stands in the virion; Trimer; Model deposited here; source: phage Mu virions grown on E. coli (ATCC 23724), purified (PEG 8000/NaCl precipitation, CsCl gradient)) MSNTVTLRADGRLFTGWTSVSVTRSIESVAGYFELGVNVPPGTDLSGLAPGKKFTLEIGGQIVCTGYIDSRRRQMTADSMKITVAGRDKTADLIDCAAVYSGGQWKNRTLEQIARDLCAPYGVTVRWELSDKESSAAFPGFTLDHSETVYEALVRASRARGVLMTSNAAGELVFSRAASTATDELVLGENLLTLDFEEDFRDRFSEYTVKGYARANGAEGDDIDAKSIVSRKGTATDSDVTRYRPMIIIADSKITAKDAQARALREQRRRLAKSITFEAEIDGWTRKDGQLWMPNLLVTIDASKYAIKTTELLVSKVTLILNDQDGLKTRVSLAPREGFLVPVESDRKNRKGGDSNGGIDALVEDYYRRHPEKTPPWKE ; stoichiometry N observed: 3

Sample portal protein gp29 (natural protein, phage Mu, UniProt Q9T1W5 1-512, looked up, portal protein gp29 of myophage Mu, as it stands in the virion; Dodecamer; Model deposited here; source: phage Mu virions grown on E. coli (ATCC 23724), purified (PEG 8000/NaCl precipitation, CsCl gradient); copies: 12) MGRILDISGQPFDFDDEMQSRSDELAMVMKRTQEHPSSGVTPNRAAQMLRDAERGDLTAQADLAFDMEEKDTHLFSELSKRRLAIQALEWRIAPARDASAQEKKDADMLNEYLHDAAWFEDALFDAGDAILKGYSMQEIEWGWLGKMRVPVALHHRDPALFCANPDNLNELRLRDASYHGLELQPFGWFMHRAKSRTGYVGTNGLVRTLIWPFIFKNYSVRDFAEFLEIYGLPMRVGKYPTGSTNREKATLMQAVMDIGRRAGGIIPMGMTLDFQSAADGQSDPFMAMIGWAEKAISKAILGGTLTTEAGDKGARSLGEVHDEVRREIRNADVGQLARSINRDLIYPLLALNSDSTIDINRLPGIVFDTSEAGDITALSDAIPKLAAG ; stoichiometry N observed: 12

Sample spike protein gp45 (natural protein, phage Mu, UniProt Q9T1V4 1-197, looked up, baseplate spike protein gp45 of myophage Mu, as it stands in the virion; Trimer; Model deposited here; source: phage Mu virions grown on E. coli (ATCC 23724), purified (PEG 8000/NaCl precipitation, CsCl gradient)) MERVNDSALNRLLTPLMRRVRLMLARAVVNVINDGRKVQNLQVGLLDDEESDEVERLQNYGHFSVPLPGAEALIACVGAQRDQGIAVVVEDRRYRPTNLEPGDAGIYHHEGHRIRLTKDGRCIITCKTVEVYADESMTVDTPRTTFTGDVEIQKGLGVKGKSQFDSNITAPDAIINGKSTDKHIHRGDSGGTTGPMQ ; stoichiometry N observed: 3

Sample tail tube protein gp40 (natural protein, phage Mu, UniProt P79679 1-118, looked up, tail tube protein gp40 of myophage Mu, as it stands in the virion; Hexameric rings, 30 of them stacked in the tail; Model deposited here; source: phage Mu virions grown on E. coli (ATCC 23724), purified (PEG 8000/NaCl precipitation, CsCl gradient)) MAGNQRQGVAFIRVNGMELESMEGASFTPSGITREEVTGSRVYGWKGKPRAAKVECKIPGGGPIGLDEIIDWENITVEFQADTGETWMLANAWQADEPKNDGGEISLVLMAKQSKRIA ; stoichiometry N observed: 6
